- assayProtocol: Quantitative High-Throughput drug screen in 47 multiple myeloma cell lines against the NCATS MIPE library collection: KMS11_JCRBsus cell viability assay (AID 1919873); further: nearly all actives have a fitted effect of over 50% in size
- statedConditions: KMS11 myeloma viability, CellTiter-Glo ATP luminescence, 48 h; series mostly up to 45.8 µM
Records with an inconclusive call do not appear. The source made the active and inactive calls. The call rests on the fitted dose curve; in most records, active means well fitted cell-killing curve with a large enough effect; inconclusive means small, poorly fitted or top-dose-only effect, or effect the other way; inactive means no such curve, though single readings can be large or run the other way.
A correct response names exactly one class from active, inactive

[[record]]
molecule = "CCn1c(-c2nonc2N)nc2c(C#CC(C)(C)O)ncc(OC[C@H]3CCCNC3)c21"
classassignment = "active"

[[record]]
molecule = "O=C(O)COCCN1CCN(C(c2ccccc2)c2ccc(Cl)cc2)CC1 (stereo not given)"
classassignment = "inactive"

[[record]]
molecule = "O=c1[nH]c(-c2ccc(C(F)(F)F)cc2)nc2c1CSCC2"
classassignment = "inactive"


Per the records of this test, what outcome belongs to COCC(=O)NCC=Cc1ccc2ncnc(Nc3ccc(Oc4ccc(C)nc4)c(C)c3)c2c1 ? active

Per the records of this test, what outcome belongs to NC(=O)C1CCCc2c1[nH]c1ccc(Cl)cc21 (stereo not given) ? inactive
